test system: SF-268 CNS; experiment: NCI tumour cell line growth inhibition, 48 h
reportedProperty: GI50

Recorded results for 2 molecules are shown here.
smilesText	GI50
O=C(Nc1ccc(Cl)cc1)Nc1ccc(Nc2nncc3ccccc23)cc1	3.19 µM
O=c1nc2oc3ccc4ccccc4c3cc-2s1	7.97 µM

Moving on to another molecule below.
// fetch GI50 given entry Cc1c2c(nn1C)CSCc1cc(n(C)n1)CSc1cc(c3ccccc3c1)OCCCc1c(C(=O)O)n(C)c3c-2c(Cl)ccc13
4.42 µM

---

test system: SNB-19 CNS; experiment: NCI tumour cell line growth inhibition, 48 h
reportedProperty: TGI

Look over these answered cases.
molecule	TGI
COC(=O)C(Cc1ccccc1)NP(=O)(O)OCC1OC(n2cc(F)c(=O)[nH]c2=O)CC1O (stereo unspecified)	> 100 µM
Cc1cc(N2CCCC2)nc(N(CCNc2ccnc3cc(Cl)ccc23)Cc2ccco2)n1	70.2 µM
NC(=S)N/N=C/c1ncccc1N	> 84.9 µM

Kindly indicate its recorded TGI. Item: O=C(O)c1ccn(-c2cccc(-n3ccc(C(=O)O)n3)n2)n1
> 100 µM

Provide TGI value for the following molecule: CSC1=N/C(=C\c2ccco2)C(=O)N1CN1CCOCC1
> 100 µM

Provide only the value of recorded TGI for Cc1cccc(C(C)C)c1NC(=O)CC1C(=O)Nc2ccccc2S1(=O)=O (stereo unspecified)
> 68 µM
